IC50 overview
Molecular target: PDGFRβ (Homo sapiens (Human))
Sequence (P09619 33-1106): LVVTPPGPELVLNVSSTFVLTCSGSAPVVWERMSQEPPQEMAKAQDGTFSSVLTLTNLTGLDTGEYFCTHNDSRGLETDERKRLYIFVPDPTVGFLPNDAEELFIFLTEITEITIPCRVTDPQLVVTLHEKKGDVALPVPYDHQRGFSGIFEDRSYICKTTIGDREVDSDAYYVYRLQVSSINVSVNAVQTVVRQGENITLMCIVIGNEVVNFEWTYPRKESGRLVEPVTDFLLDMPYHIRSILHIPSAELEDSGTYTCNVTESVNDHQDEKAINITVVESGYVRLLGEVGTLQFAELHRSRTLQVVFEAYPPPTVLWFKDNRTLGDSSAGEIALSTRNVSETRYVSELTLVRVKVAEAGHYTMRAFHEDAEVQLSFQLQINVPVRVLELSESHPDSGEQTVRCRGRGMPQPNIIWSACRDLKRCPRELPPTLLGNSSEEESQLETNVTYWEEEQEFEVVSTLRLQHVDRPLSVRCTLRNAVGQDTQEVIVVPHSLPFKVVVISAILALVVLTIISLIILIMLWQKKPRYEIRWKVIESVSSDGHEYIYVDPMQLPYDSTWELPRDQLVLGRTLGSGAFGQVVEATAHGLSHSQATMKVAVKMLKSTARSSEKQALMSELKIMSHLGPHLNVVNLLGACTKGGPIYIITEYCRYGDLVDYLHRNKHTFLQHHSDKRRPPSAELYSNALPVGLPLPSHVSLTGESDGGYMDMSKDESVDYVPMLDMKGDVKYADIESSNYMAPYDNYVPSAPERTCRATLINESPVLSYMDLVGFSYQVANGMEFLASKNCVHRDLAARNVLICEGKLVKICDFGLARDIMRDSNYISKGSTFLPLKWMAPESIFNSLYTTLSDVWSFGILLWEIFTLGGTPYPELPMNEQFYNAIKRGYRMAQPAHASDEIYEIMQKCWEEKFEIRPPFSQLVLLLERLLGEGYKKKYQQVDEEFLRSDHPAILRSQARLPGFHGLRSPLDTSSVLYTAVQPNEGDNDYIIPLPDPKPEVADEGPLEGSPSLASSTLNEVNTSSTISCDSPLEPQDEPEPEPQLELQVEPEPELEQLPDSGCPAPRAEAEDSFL
Test: PDGF-BB induced phosphorylation of PDGFRβ in fibroblasts (MRC5, HTRF)
Type: cell-based
Conditions: MRC5 cells, PDGFBB stimulation; read-out: PDGFBB-induced PDGFRβ phosphorylation in MRC5 cells (IC50)
Reply with just the number (in nM).

Short answer for "COC(=O)c1cc2c(cc1C)/C(=C(/Nc1ccc(C(=O)NCCN3CCN(C)CC3)cc1)c1ccccc1)C(=O)N2" : IC50 was 14

Measured IC50, "COC(=O)c1cc2c(cc1C)/C(=C(/Nc1ccc(C(=O)NCCN3CCC(N(C)C)CC3)cc1)c1ccccc1)C(=O)N2" : 13.2
